Assay read-out Ki; system under study: Prothrombin (Homo sapiens, UniProt P00734).
MEASUREMENT_KIND: Ki

> print(dat)
                                smiles.repr  recorded.value
1  O=C(Nc1ccc(Cl)cc1)c1cc(Cl)ccc1NC(=O)c1sc2ccccc2c1Cl          > 5 µM
2  O=C(Nc1ccc(Cl)cc1)c1cc(Cl)ccc1NC(=O)c1sc(CN2CCOCC2)cc1Cl          > 5 µM
3  O=C(O)CN1CCN(Cc2ccc3c(Cl)c(C(=O)Nc4ccc(Cl)cc4C(=O)Nc4ccc(Cl)cc4)sc3c2)CC1          > 5 µM
